molecular target: T1, human CD47 on cells (SHP-77 tumor cells, human red blood cells, CCRF-CEM cells, human CD47 CHO-K1 stable cell … (human, UniProt Q08722 19-323)); assay: flow cytometry on SHP-77 cells
T1 construct: whole, on cells; also called RBC
experimentalEndpoint: Fitted Maximal MFI

Some entries whose results are on file:
{"binder": "108VH5.M21 / 108VL1.M5 (antibody, human IgG4 S228P, kappa, V domains shown, Full-length IgG4 (S228P), kappa; also called VH5.M21 VL1.M5) VH: EVQLVQSGAEVKKPGASVKVSCKASGYTFTHHWMHWVRQAPGQGLEWMGMIDASDFETRYAQKFQGRVTMTRDTSTSTVYMELSSLRSEDTAVYYCARLGRYYFDYWGQGTLVTVSS VL: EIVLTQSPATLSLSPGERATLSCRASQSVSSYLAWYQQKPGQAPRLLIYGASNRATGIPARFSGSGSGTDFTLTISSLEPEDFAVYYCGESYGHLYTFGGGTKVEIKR", "Fitted Maximal MFI": "37400 MFI"}
{"binder": "108VH5.M16 / 108VL1.M5 (antibody, human IgG4 S228P, kappa, V domains shown, Full-length IgG4 (S228P), kappa; also called VH5.M16 VL1.M5) VH: EVQLVQSGAEVKKPGASVKVSCKASGYTFTHHWMHWVRQAPGQGLEWMGMIDASDGETRYAQKFQGRVTMTRDTSTSTVYMELSSLRSEDTAVYYCARLGRYYFDYWGQGTLVTVSS VL: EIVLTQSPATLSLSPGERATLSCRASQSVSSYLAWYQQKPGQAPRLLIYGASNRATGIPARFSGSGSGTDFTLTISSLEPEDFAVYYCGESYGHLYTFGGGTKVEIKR", "Fitted Maximal MFI": "44700 MFI"}

Query: Fitted Maximal MFI; subject: 108VH5.M11 / 108VL1.M5 (antibody, human IgG4 S228P, kappa, V domains shown, Full-length IgG4 (S228P), kappa; also called VH5.M11 VL1.M5) VH: EVQLVQSGAEVKKPGASVKVSCKASGYTFTHHYIHWVRQAPGQGLEWMGMIDASDSETRYAQKFQGRVTMTRDTSTSTVYMELSSLRSEDTAVYYCARLGRYYFDYWGQGTLVTVSS VL: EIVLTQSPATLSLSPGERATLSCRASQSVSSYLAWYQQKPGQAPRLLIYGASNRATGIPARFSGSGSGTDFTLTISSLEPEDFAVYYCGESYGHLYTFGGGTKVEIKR
4000 MFI
